Recorded TGI for the following compounds
Tested on: A549 NSCLC
Assay: NCI tumour cell line growth inhibition, 48 h

> print(dat)
                                   compound  measured.target  reported.result
1  CC(=O)Nc1c(S(=O)(=O)c2ccccc2)c(C)c(C)n1Cc1ccccc1       A549 NSCLC         > 100 µM
2        CC(=O)Nc1c(Nc2ccccc2)[nH]c(C)nc1=S       A549 NSCLC         > 100 µM

The recorded TGI for entry COC1=CC(=O)CC(C)C12Oc1c(Cl)c(OC)cc(OC)c1C2=O (stereo not drawn) equals > 100 µM
